The reported numbers originate from patent US11236083B2.

Biological target: Sgk3 (Homo sapiens)
Sequence (Q96BR1 1-496): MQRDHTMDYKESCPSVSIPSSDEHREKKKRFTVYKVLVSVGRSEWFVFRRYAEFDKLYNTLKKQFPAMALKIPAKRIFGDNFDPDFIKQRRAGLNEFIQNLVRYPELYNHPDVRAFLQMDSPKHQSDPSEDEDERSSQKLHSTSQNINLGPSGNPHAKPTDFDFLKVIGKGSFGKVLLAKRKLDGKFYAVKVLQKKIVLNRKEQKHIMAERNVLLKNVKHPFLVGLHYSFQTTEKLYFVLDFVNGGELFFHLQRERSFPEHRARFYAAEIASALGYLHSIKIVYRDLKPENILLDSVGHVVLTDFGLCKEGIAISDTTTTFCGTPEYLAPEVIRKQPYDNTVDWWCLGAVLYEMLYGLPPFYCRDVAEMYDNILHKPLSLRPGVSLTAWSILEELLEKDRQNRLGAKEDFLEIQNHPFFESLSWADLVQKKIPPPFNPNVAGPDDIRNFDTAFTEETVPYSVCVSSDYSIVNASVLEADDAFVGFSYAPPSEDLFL
Assay: Enzyme based assay for SGK3
Assay type: biochemical
Could you please report measured pIC50 for the items listed next?
Would you please state pIC50, meaning minus log10 of the concentration in mol/L, as a bare number?

The molecule `COc1ccc(F)c(S(=O)(=O)Nc2ccc(-c3cc(OCCO)c4c(N)n[nH]c4c3)cc2)c1` showed pIC50 equal to 7.05

The molecule COc1ccc(F)c(S(=O)(=O)Nc2ccc(-c3cc(NCC4CNCCO4)c4cn[nH]c4c3)cc2)c1 (stereo not shown) showed pIC50 equal to 6.82

The molecule COc1ccc(F)c(S(=O)(=O)Nc2ccc(-c3cc4[nH]nc(N)c4c(C)n3)cc2)c1 [drawing 110] showed pIC50 equal to 7.30

The molecule COc1ccc(F)c(S(=O)(=O)Nc2ccc(-c3cc(OC)c4c(N)n[nH]c4c3)cc2)c1 [drawing 108] showed pIC50 equal to 7.40

###

assay: PK study in male ICR mice, intravenous and oral administration, plasma concentration; format: in vivo; settings: mouse, plasma, IV (2 mg/kg)
metricName: Cmax (ng/mL)
A number alone suffices; assume ng/mL.

The molecule `COc1ccc(F)c(S(=O)(=O)Nc2ccc(-c3ccc4c(N)n[nH]c4c3)nc2)c1` showed Cmax equal to 29100

###

experiment: PK study in male ICR mice, intravenous and oral administration, plasma concentration; assay type: in vivo; conditions: mouse, plasma, IV (2 mg/kg), read-out: MRT(0-∞)
metricName: MRT inf

The compound `COc1ccc(F)c(S(=O)(=O)Nc2ccc(-c3ccc4c(N)n[nH]c4c3)nc2)c1` showed MRT inf equal to 8.84 h

###

Target chain: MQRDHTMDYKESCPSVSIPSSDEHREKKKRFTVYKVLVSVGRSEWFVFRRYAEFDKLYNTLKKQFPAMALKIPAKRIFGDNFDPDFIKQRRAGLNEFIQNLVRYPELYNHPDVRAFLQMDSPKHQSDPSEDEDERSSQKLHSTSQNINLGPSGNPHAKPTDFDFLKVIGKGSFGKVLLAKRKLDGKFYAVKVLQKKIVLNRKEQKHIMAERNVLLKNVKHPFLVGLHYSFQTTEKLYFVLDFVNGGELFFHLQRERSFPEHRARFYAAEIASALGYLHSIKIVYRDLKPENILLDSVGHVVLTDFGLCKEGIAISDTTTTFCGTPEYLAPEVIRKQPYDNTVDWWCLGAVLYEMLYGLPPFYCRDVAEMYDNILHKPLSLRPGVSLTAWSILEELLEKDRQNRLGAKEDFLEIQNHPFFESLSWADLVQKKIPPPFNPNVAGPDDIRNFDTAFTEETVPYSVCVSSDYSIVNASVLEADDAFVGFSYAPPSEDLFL
Could you please report measured pIC50 for the items listed next?
Would you please state pIC50, meaning minus log10 of the concentration in mol/L, as a bare number?

The compound COc1ccc(F)c(S(=O)(=O)Nc2ccc(-c3cc4[nH]ncc4c(OCC4CNCCO4)n3)cc2)c1 (stereo not shown) [drawing 105] showed pIC50 equal to 7.00

The compound COc1ccc(F)c(S(=O)(=O)Nc2ccc(-c3cc(C)c4c(N)n[nH]c4n3)cc2)c1 [drawing 111] showed pIC50 equal to 7.52

The compound COc1ccc(F)c(S(=O)(=O)Nc2ccc(-c3ccc4c(N)n[nH]c4n3)cc2)c1 [drawing 140] showed pIC50 equal to 7.15

The compound `CCOc1cc(-c2ccc(NS(=O)(=O)c3cc(OC)ccc3F)cc2)cc2[nH]nc(N)c12` showed pIC50 equal to 6.89
